assay: Nuclear factor erythroid 2-related factor 2/antioxidant responsive element (Nrf2/ARE) small molecule agonists: qHTS cell viability counter screen in human keratinocytes (AID 1919968); conditions: KeratinoSens HaCaT ARE cells viability, CellTiter-Fluor, 24 h; series mostly up to 92.4 µM; also: nearly all actives have a fitted effect of over 55% in size
Inconclusive results are not listed. Active and inactive are the calls of the source. Calls follow the shape of the dose curve; as a rule, active = well fitted cell-killing curve with a large enough effect in the repeat runs; inconclusive = weak or mixed curves, or effect the other way; inactive = flat fitted curve, though single readings scatter.
Can you answer with just one of these options? YES (active), NO (inactive)

As a guide, the following entries are already answered.
How did this test come out for O=C(O)C(F)(F)C(F)(F)C(F)(F)C(F)(F)C(F)(F)F ?
NO

How did this test come out for CCCCc1ccccc1 ?
NO

How did this test come out for CCOP(=S)(OCC)SCCl ?
NO

How did this test come out for C=CC(=C)C ?
NO

How did this test come out for CC(C)(Cl)[N+](=O)[O-] ?
NO

How did this test come out for O=C(NC(=O)c1c(F)cccc1F)Nc1cc(Cl)c(OC(F)(F)C(F)F)c(Cl)c1 ?
NO

How did this test come out for CCOP(=S)(OCC)SCSc1ccc(Cl)cc1 ?
NO

How did this test come out for Nc1ccc2c(c1)Cc1ccccc1-2 ?
NO

How did this test come out for CO/N=C(/C(=O)OC)c1ccccc1COc1ccccc1C ?
NO

How did this test come out for c1ccc(Nc2ccc(Nc3ccccc3)cc2)cc1 ?
NO

---
How did this test come out for CC(C)CCCCCCCOC(=O)c1ccccc1C(=O)OCCCCCCCC(C)C ?
NO

How did this test come out for CC(N)=S ?
NO

How did this test come out for CC(Cc1ccc2c(c1)OCO2)NO (configuration not stated) ?
NO

How did this test come out for CC(C)(C)NCC(O)c1cc(Cl)c(N)c(Cl)c1 (configuration not stated) ?
NO

Value source: PubChem BioAssay (Tox21)
